# log10 EC50 per record follows
Experiment: Cytotoxicity against human melanoma cells
Type: functional
Conditions: Melanoma cell, read-out: ED50 (the source's name)
Scale type: logarithmic (base 10). Underlying EC50 unit: µg/mL.

Examples with their reported log10 EC50 follow.
• COC1=CC(=O)C(OC)=CC1=O = 0.43
• COc1cc([C@H]2OC[C@H]3[C@@H]2CO[C@@H]3c2cc(OC)c(O[C@@H]3O[C@H](CO)[C@@H](O)[C@H](O)[C@H]3O)c(OC)c2)cc(OC)c1O[C@@H]1O[C@H](CO)[C@@H](O)[C@H](O)[C@H]1O = 1.28
• C/C=C/C=C1\C=Cc2c(C(=O)OC)coc(=O)c21 = -0.15

Query block: Retrieve log10 EC50 measured for C/C=C1/C(=O)O[C@@]23C=C[C@H]4[C@@H](C(=O)OC)[C@H](O)O[C@@H](O[C@H]12)[C@H]43 and print it.
Result block: -0.52

Query block: Retrieve log10 EC50 measured for C/C=C1/C(=O)O[C@@]23C=C[C@H]4C[C@H](O)O[C@@H](O[C@H]12)[C@H]43 and print it.
Result block: -0.05

Query block: Retrieve log10 EC50 measured for C/C=C1/C(=O)O[C@]23C=C[C@@H]4C(C(=O)OC)=CO[C@H](O[C@@H]12)[C@@H]43 and print it.
Result block: 0.45
